Tested on: Enterococcus faecium
Procedure Details: Antibacterial activity against glycopeptide-resistant Enterococcus faecium Efm-HS-0649 vanA after 24 hrs by broth microdilution method
Assay type: functional
Test Settings: Efm-HS-0649, 24 h
Measured Endpoint: MIC (µg/mL)

| Smiles Str | Measured Endpoint | Reported Measurement |
| --- | --- | --- |
| CN[C@H](CC(C)C)C(=O)N[C@H]1C(=O)N[C@@H](CC(N)=O)C(=O)N[C@H]2C(=O)N[C@H]3C(=O)N[C@H](C(=O)N[C@H](C(=O)O)c4cc(O)c(CNCCO[C@@H]5O[C@H](CO)[C@H](O)[C@H](O)[C@H]5O)c(O)c4-c4cc3ccc4O)[C@H](O)c3ccc(c(Cl)c3)Oc3cc2cc(c3O[C@@H]2O[C@H](CO)[C@@H](O)[C@H](O)[C@H]2O[C@H]2C[C@](C)(NCc3ccc(-c4ccc(C(F)(F)F)cc4)cc3)[C@H](O)[C@H](C)O2)Oc2ccc(cc2Cl)[C@H]1O | MIC | 2 |

====

System: L02
Procedure Details: Cytotoxicity against human HL7702 cells assessed as decrease in cell viability at 10 to 100 uM after 72 hrs by CCK8 assay
Format: cell-based
Test Settings: l02, 72 h
Measured Endpoint: Activity

| Smiles Str | Target System | Reported Measurement |
| --- | --- | --- |
| CN[C@H](CC(C)C)C(=O)N[C@H]1C(=O)N[C@@H](CC(N)=O)C(=O)N[C@H]2C(=O)N[C@H]3C(=O)N[C@H](C(=O)N[C@H](C(=O)O)c4cc(O)c(CNCCO[C@@H]5O[C@H](CO)[C@H](O)[C@H](O)[C@H]5O)c(O)c4-c4cc3ccc4O)[C@H](O)c3ccc(c(Cl)c3)Oc3cc2cc(c3O[C@@H]2O[C@H](CO)[C@@H](O)[C@H](O)[C@H]2O[C@H]2C[C@](C)(NCc3ccc(-c4ccc(Cl)cc4)cc3)[C@H](O)[C@H](C)O2)Oc2ccc(cc2Cl)[C@H]1O | L02 | Non-Toxic |
| CCCCCCCCCCNCCN[C@@]1(C)C[C@H](O[C@H]2[C@H](Oc3c4cc5cc3Oc3ccc(cc3Cl)[C@@H](O)[C@@H](NC(=O)[C@@H](CC(C)C)NC)C(=O)N[C@@H](CC(N)=O)C(=O)N[C@H]5C(=O)N[C@H]3C(=O)N[C@H](C(=O)N[C@H](C(=O)O)c5cc(O)c(CNCP(=O)(O)O)c(O)c5-c5cc3ccc5O)[C@H](O)c3ccc(c(Cl)c3)O4)O[C@H](CO)[C@@H](O)[C@@H]2O)O[C@@H](C)[C@H]1O | L02 | Toxic |
| CN[C@H](CC(C)C)C(=O)N[C@H]1C(=O)N[C@@H](CC(N)=O)C(=O)N[C@H]2C(=O)N[C@H]3C(=O)N[C@H](C(=O)N[C@H](C(=O)O)c4cc(O)c(CNCCO[C@@H]5O[C@H](CO)[C@H](O)[C@H](O)[C@H]5O)c(O)c4-c4cc3ccc4O)[C@H](O)c3ccc(c(Cl)c3)Oc3cc2cc(c3O[C@@H]2O[C@H](CO)[C@@H](O)[C@H](O)[C@H]2O[C@H]2C[C@](C)(NCc3ccc(-c4ccc(C(F)(F)F)cc4)cc3)[C@H](O)[C@H](C)O2)Oc2ccc(cc2Cl)[C@H]1O | L02 | Non-Toxic |
| CN[C@H](CC(C)C)C(=O)N[C@H]1C(=O)N[C@@H](CC(N)=O)C(=O)N[C@H]2C(=O)N[C@H]3C(=O)N[C@H](C(=O)N[C@H](C(=O)O)c4cc(O)cc(O)c4-c4cc3ccc4O)[C@H](O)c3ccc(c(Cl)c3)Oc3cc2cc(c3O[C@@H]2O[C@H](CO)[C@@H](O)[C@H](O)[C@H]2O[C@H]2C[C@](C)(N)[C@H](O)[C@H](C)O2)Oc2ccc(cc2Cl)[C@H]1O | L02 | Toxic |

====

Procedure Details: Clearance in CD1 mouse at 5 mg/kg, iv
Type: ADME, organism-based
Test Settings: in vivo
Listed below: clearance values for each entry.

| Compound | clearance (mL/min/kg) |
| --- | --- |
| CN[C@H](CC(C)C)C(=O)N[C@H]1C(=O)N[C@@H](CC(N)=O)C(=O)N[C@H]2C(=O)N[C@H]3C(=O)N[C@H](C(=O)N[C@H](C(=O)O)c4cc(O)cc(O)c4-c4cc3ccc4O)[C@H](O)c3ccc(c(Cl)c3)Oc3cc2cc(c3O[C@@H]2O[C@H](CO)[C@@H](O)[C@H](O)[C@H]2O[C@H]2C[C@](C)(NCc3ccc(-c4ccc(C(F)(F)F)cc4)cc3)[C@H](O)[C@H](C)O2)Oc2ccc(cc2Cl)[C@H]1O | 1.24 |
| CN[C@H](CC(C)C)C(=O)N[C@H]1C(=O)N[C@@H](CC(N)=O)C(=O)N[C@H]2C(=O)N[C@H]3C(=O)N[C@H](C(=O)N[C@H](C(=O)O)c4cc(O)cc(O)c4-c4cc3ccc4O)[C@H](O)c3ccc(c(Cl)c3)Oc3cc2cc(c3O[C@@H]2O[C@H](CO)[C@@H](O)[C@H](O)[C@H]2O[C@H]2C[C@](C)(N)[C@H](O)[C@H](C)O2)Oc2ccc(cc2Cl)[C@H]1O | 68.7 |
| CN[C@H](CC(C)C)C(=O)N[C@H]1C(=O)N[C@@H](CC(N)=O)C(=O)N[C@H]2C(=O)N[C@H]3C(=O)N[C@H](C(=O)N[C@H](C(=O)O)c4cc(O)c(CN[C@H]5C(O)O[C@H](CO)[C@H](O)[C@@H]5O)c(O)c4-c4cc3ccc4O)[C@H](O)c3ccc(c(Cl)c3)Oc3cc2cc(c3O[C@@H]2O[C@H](CO)[C@@H](O)[C@H](O)[C@H]2O[C@H]2C[C@](C)(NCc3ccc(-c4ccc(Cl)cc4)cc3)[C@H](O)[C@H](C)O2)Oc2ccc(cc2Cl)[C@H]1O (stereo partly specified) | 7 |
| CN[C@H](CC(C)C)C(=O)N[C@H]1C(=O)N[C@@H](CC(N)=O)C(=O)N[C@H]2C(=O)N[C@H]3C(=O)N[C@H](C(=O)N[C@H](C(=O)O)c4cc(O)c(CNCCO[C@@H]5O[C@H](CO)[C@H](O)[C@H](O)[C@H]5O)c(O)c4-c4cc3ccc4O)[C@H](O)c3ccc(c(Cl)c3)Oc3cc2cc(c3O[C@@H]2O[C@H](CO)[C@@H](O)[C@H](O)[C@H]2O[C@H]2C[C@](C)(NCc3ccc(-c4ccc(C(F)(F)F)cc4)cc3)[C@H](O)[C@H](C)O2)Oc2ccc(cc2Cl)[C@H]1O | 4.42 |
| CN[C@H](CC(C)C)C(=O)N[C@H]1C(=O)N[C@@H](CC(N)=O)C(=O)N[C@H]2C(=O)N[C@H]3C(=O)N[C@H](C(=O)N[C@H](C(=O)O)c4cc(O)c(CNCCCNC(=O)[C@H](O)[C@@H](O)[C@H](O)[C@H](O)CO)c(O)c4-c4cc3ccc4O)[C@H](O)c3ccc(c(Cl)c3)Oc3cc2cc(c3O[C@@H]2O[C@H](CO)[C@@H](O)[C@H](O)[C@H]2O[C@H]2C[C@](C)(NCc3ccc(-c4ccc(C(F)(F)F)cc4)cc3)[C@H](O)[C@H](C)O2)Oc2ccc(cc2Cl)[C@H]1O | 6.4 |
| CN[C@H](CC(C)C)C(=O)N[C@H]1C(=O)N[C@@H](CC(N)=O)C(=O)N[C@H]2C(=O)N[C@H]3C(=O)N[C@H](C(=O)N[C@H](C(=O)O)c4cc(O)c(CN[C@H]5C(O)O[C@H](CO)[C@H](O)[C@@H]5O)c(O)c4-c4cc3ccc4O)[C@H](O)c3ccc(c(Cl)c3)Oc3cc2cc(c3O[C@@H]2O[C@H](CO)[C@@H](O)[C@H](O)[C@H]2O[C@H]2C[C@](C)(NCc3ccc(-c4ccc(C(F)(F)F)cc4)cc3)[C@H](O)[C@H](C)O2)Oc2ccc(cc2Cl)[C@H]1O (stereo partly specified) | 3.45 |

====

System: Enterococcus faecium
Procedure Details: Antibacterial activity against glycopeptide-resistant Enterococcus faecium Efm-HS-0847 vanM after 24 hrs by broth microdilution method
Assay type: functional
Test Settings: Efm-HS-0847, 24 h
Measured Endpoint: MIC (µg/mL)

| Smiles Str | Measure Unit | Reported Measurement |
| --- | --- | --- |
| CN[C@H](CC(C)C)C(=O)N[C@H]1C(=O)N[C@@H](CC(N)=O)C(=O)N[C@H]2C(=O)N[C@H]3C(=O)N[C@H](C(=O)N[C@H](C(=O)O)c4cc(O)c(CNCCO[C@@H]5O[C@H](CO)[C@H](O)[C@H](O)[C@H]5O)c(O)c4-c4cc3ccc4O)[C@H](O)c3ccc(c(Cl)c3)Oc3cc2cc(c3O[C@@H]2O[C@H](CO)[C@@H](O)[C@H](O)[C@H]2O[C@H]2C[C@](C)(NCc3ccc(-c4ccc(Cl)cc4)cc3)[C@H](O)[C@H](C)O2)Oc2ccc(cc2Cl)[C@H]1O | µg/mL | 16 |
| CCCCCCCCCCNCCN[C@@]1(C)C[C@H](O[C@H]2[C@H](Oc3c4cc5cc3Oc3ccc(cc3Cl)[C@@H](O)[C@@H](NC(=O)[C@@H](CC(C)C)NC)C(=O)N[C@@H](CC(N)=O)C(=O)N[C@H]5C(=O)N[C@H]3C(=O)N[C@H](C(=O)N[C@H](C(=O)O)c5cc(O)c(CNCCCNC(=O)[C@H](O)[C@@H](O)[C@H](O)[C@H](O)CO)c(O)c5-c5cc3ccc5O)[C@H](O)c3ccc(c(Cl)c3)O4)O[C@H](CO)[C@@H](O)[C@@H]2O)O[C@@H](C)[C@H]1O | µg/mL | 2 |
| CN[C@H](CC(C)C)C(=O)N[C@H]1C(=O)N[C@@H](CC(N)=O)C(=O)N[C@H]2C(=O)N[C@H]3C(=O)N[C@H](C(=O)N[C@H](C(=O)O)c4cc(O)c(CNCCO[C@@H]5O[C@H](CO)[C@H](O)[C@H](O)[C@H]5O)c(O)c4-c4cc3ccc4O)[C@H](O)c3ccc(c(Cl)c3)Oc3cc2cc(c3O[C@@H]2O[C@H](CO)[C@@H](O)[C@H](O)[C@H]2O[C@H]2C[C@](C)(NCc3ccc(-c4ccc(C(F)(F)F)cc4)cc3)[C@H](O)[C@H](C)O2)Oc2ccc(cc2Cl)[C@H]1O | µg/mL | 8 |
